measurement.target: Albumin (Homo sapiens)
procedure.summary: Binding affinity to human serum albumin at 100 umol/l by equilibrium dialysis technique
Type: ADME
run.conditions: isolated protein, 100 µM
endpoint.label: log(PB)
Give only the figure.

Known results for molecules:
smiles.repr | log(PB)
Nc1ccc(C(=O)O)cc1Cl | 1.81
Nc1ccc(C(=O)O)cc1O | 1.27

Request: Would you mind telling me what log(PB) value was observed for `Cl.Nc1ccc(C(=O)O)c(N)c1` ?
Result: 1

---

log(PB) by entry:
measurement.target: Albumin (Homo sapiens, UniProt P02768)
Sequence (P02768 whole entry): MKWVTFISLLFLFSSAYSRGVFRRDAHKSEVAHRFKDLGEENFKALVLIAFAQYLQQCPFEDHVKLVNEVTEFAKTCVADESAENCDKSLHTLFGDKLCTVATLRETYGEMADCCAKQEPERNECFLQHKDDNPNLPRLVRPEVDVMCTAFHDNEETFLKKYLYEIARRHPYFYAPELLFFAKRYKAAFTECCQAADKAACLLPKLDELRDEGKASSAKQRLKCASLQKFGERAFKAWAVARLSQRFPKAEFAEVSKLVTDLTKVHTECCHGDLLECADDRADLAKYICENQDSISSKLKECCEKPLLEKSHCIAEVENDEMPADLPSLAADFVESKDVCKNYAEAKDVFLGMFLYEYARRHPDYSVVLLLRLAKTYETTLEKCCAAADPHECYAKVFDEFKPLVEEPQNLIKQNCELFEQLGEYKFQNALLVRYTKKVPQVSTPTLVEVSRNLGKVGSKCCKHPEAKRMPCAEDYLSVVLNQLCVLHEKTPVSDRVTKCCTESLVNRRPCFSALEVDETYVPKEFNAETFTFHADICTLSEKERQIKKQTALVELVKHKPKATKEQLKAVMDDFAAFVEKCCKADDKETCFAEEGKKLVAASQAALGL
procedure.summary: Binding affinity to human serum albumin at 100 umol/l by equilibrium dialysis technique
Assay type: ADME
run.conditions: isolated protein, 100 µM
Give only the figure.

Known results for compounds:
smiles.repr | log(PB)
Nc1ccc(C(=O)O)c(O)c1 | 1.57
Cl.Nc1ccc(C(=O)O)c(I)c1 | 1.79
Nc1ccc(C(=O)O)cc1Br | 1.89
CCCCCOc1cc(N)ccc1C(=O)O | 1.76
COc1cc(N)ccc1C(=O)O | 1.26

Here's the next entry for you.
Request: Field: log(PB) (Albumin (Homo sapiens, UniProt P02768)). Entry: `Cc1cc(C(=O)O)ccc1N`
Result: 1.37
